Biological target: T1, Tumor Necrosis Factor-alpha (UniProt P01375 77-233)
T1 construct: Immobilised on pipette tips or SPR chips (amine coupling or biotin capture); also called TNF-α; TNF-alpha
T1 sequence (P01375 77-233 limits assumed): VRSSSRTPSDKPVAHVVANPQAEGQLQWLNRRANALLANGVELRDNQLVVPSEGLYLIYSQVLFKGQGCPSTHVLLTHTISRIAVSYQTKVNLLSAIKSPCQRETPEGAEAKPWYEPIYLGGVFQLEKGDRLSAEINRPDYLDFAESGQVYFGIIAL
Experiment: SPR (Biacore A100), TNF-α captured, equilibrium response over a concentration series
Listed below: Binding ΔG values for each entry.

{"binder": "FERDPLKMPWSFLQSRQGSC [TNF1 M7K point-mutant]", "unitLabel": "kcal/mol", "Binding ΔG": -5.93}
{"binder": "FERYPLMMPWSFLQSRQGSC [TNF1 D4Y point-mutant]", "unitLabel": "kcal/mol", "Binding ΔG": -5.95}
{"binder": "FERDPLMMPWKFLQSRQGSC [TNF1 S11K point-mutant]", "unitLabel": "kcal/mol", "Binding ΔG": -6.03}
{"binder": "FERDYLMMPWSFLQSRQGSC [TNF1 P5Y point-mutant]", "unitLabel": "kcal/mol", "Binding ΔG": -5.79}
{"binder": "FERDPLMMPWSFLQSRQGSC [TNF1 lead peptide]", "unitLabel": "kcal/mol", "Binding ΔG": -5.21}

Values from patent US20190194358A1
